Target: T1, Human CD24 (human, UniProt P25063 27-59, limits assumed)
T1 chain (looked up): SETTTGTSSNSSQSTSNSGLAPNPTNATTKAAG
Test: SPR, second 1:1 binding column set
endpoint_label: pKd
Would you please state pKd, meaning minus log10 of the concentration in mol/L, as a bare number?

Qu. May I ask what pKd has been recorded for Antibody No 3, lead clone of 4451H (HC N35G; LC L33G, T97I) (antibody, V domains shown) VH: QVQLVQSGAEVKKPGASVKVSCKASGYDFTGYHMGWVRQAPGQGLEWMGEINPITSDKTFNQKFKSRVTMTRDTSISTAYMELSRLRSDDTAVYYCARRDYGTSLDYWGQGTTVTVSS VL: DIQLTQSPSFLSASVGDRVTITCRASKSISKYGAWYQQKPGKAPKLLIYAGSTLHSGIPSRFRGSGSGTEFTLTISSLQPEDFATYYCQQHNEYPIIFGQGTKLEIK ?
Ans. 8.34
